settings: cell viability/%
Where a SMILES comes first, the peptide text is derived from it. [ ]: non-standard residue; d: D form. The star is where a group is joined. NHCH2CH2OH = OCCN*; For = O=C*
Reported endpoint: viability (%)

[[record]]
compound = "CC(C)C[C@@H](NC(=O)[C@H](C)NC(=O)[C@H](NC(=O)[C@H](C)NC(=O)CNC(=O)[C@@H](NC=O)C(C)C)[C@H](C)O)C(=O)N[C@H](C(=O)N[C@H](CC(C)C)C(=O)N[C@@H](Cc1c[nH]c2ccccc12)C(=O)N[C@@H](C(=O)N[C@@H](Cc1c[nH]c2ccccc12)C(=O)N[C@H](CC(C)C)C(=O)N[C@@H](Cc1c[nH]c2ccccc12)C(=O)N[C@H](CC(C)C)C(=O)N[C@@H](Cc1c[nH]c2ccccc12)C(=O)NCCO)C(C)C)C(C)C [compound 4687] (For-VGA[dT]A[dL]V[dL]W[dV]W[dL]W[dL]W-NHCH2CH2OH)"
number = 94.4

[[record]]
compound = "CC(C)C[C@@H](NC(=O)[C@H](Cc1c[nH]c2ccccc12)NC(=O)[C@@H](CC(C)C)NC(=O)[C@H](Cc1c[nH]c2ccccc12)NC(=O)[C@H](NC(=O)[C@H](Cc1c[nH]c2ccccc12)NC(=O)[C@H](NC(=O)[C@@H](NC(=O)[C@H](NC(=O)[C@H](C)NC(=O)[C@H](NC(=O)[C@H](C)NC(=O)CNC(=O)[C@@H](NC=O)C(C)C)[C@H](C)O)C(C)C)C(C)C)C(C)C)[C@H](C)O)C(=O)N[C@@H](Cc1c[nH]c2ccccc12)C(=O)NCCO [compound 3226] (For-VGA[dT]A[dV]V[dV]W[dT]W[dL]W[dL]W-NHCH2CH2OH)"
number = 87.6

[[record]]
compound = "CC(C)C[C@@H](NC(=O)[C@H](Cc1c[nH]c2ccccc12)NC(=O)[C@@H](CC(C)C)NC(=O)[C@H](Cc1c[nH]c2ccccc12)NC(=O)[C@@H](CC(C)C)NC(=O)[C@H](Cc1c[nH]c2ccccc12)NC(=O)[C@H](NC(=O)[C@@H](NC(=O)[C@H](NC(=O)[C@H](C)NC(=O)[C@H](NC(=O)[C@H](C)NC(=O)CNC(=O)[C@@H](NC=O)C(C)C)C(C)C)C(C)C)C(C)C)[C@H](C)O)C(=O)N[C@@H](Cc1c[nH]c2ccccc12)C(=O)NCCO [compound 10353] (For-VGA[dV]A[dV]V[dT]W[dL]W[dL]W[dL]W-NHCH2CH2OH)"
number = 100


====

Documented EC50 across a set of compounds
assay: H+/Na+ transport assay of purified peptides; conditions: read-out: H+/Na+ transport activity EC50; EYPC/EYPG (19:1) LUVs
Where a SMILES comes first, the peptide text is derived from it. [ ]: non-standard residue; d: D form. The star is where a group is joined. NHCH2CH2OH = OCCN*; For = O=C*
Reported endpoint: EC50 (nM)

[[record]]
compound = "CC(C)C[C@@H](NC(=O)[C@H](Cc1c[nH]c2ccccc12)NC(=O)[C@@H](CC(C)C)NC(=O)[C@H](Cc1c[nH]c2ccccc12)NC(=O)[C@@H](CC(C)C)NC(=O)[C@H](Cc1c[nH]c2ccccc12)NC(=O)[C@H](NC(=O)[C@@H](NC(=O)[C@H](NC(=O)[C@H](C)NC(=O)[C@H](NC(=O)[C@H](C)NC(=O)CNC(=O)[C@@H](NC=O)C(C)C)C(C)C)C(C)C)C(C)C)C(C)C)C(=O)N[C@@H](Cc1c[nH]c2ccccc12)C(=O)NCCO [A1] (For-VGA[dV]A[dV]V[dV]W[dL]W[dL]W[dL]W-NHCH2CH2OH)"
reported_endpoint = "EC50"
number = 2.5

[[record]]
compound = "CC(C)C[C@@H](NC(=O)[C@H](C)NC(=O)CNC(=O)[C@@H](NC=O)C(C)C)C(=O)N[C@@H](C)C(=O)N[C@@H](C(=O)N[C@H](C(=O)N[C@@H](C(=O)N[C@@H](Cc1c[nH]c2ccccc12)C(=O)N[C@H](CC(C)C)C(=O)N[C@@H](Cc1c[nH]c2ccccc12)C(=O)N[C@H](CC(C)C)C(=O)N[C@@H](Cc1c[nH]c2ccccc12)C(=O)N[C@@H](C(=O)N[C@@H](Cc1c[nH]c2ccccc12)C(=O)NCCO)C(C)C)[C@H](C)O)C(C)C)C(C)C [B12] (For-VGA[dL]A[dV]V[dT]W[dL]W[dL]W[dV]W-NHCH2CH2OH)"
reported_endpoint = "EC50"
number = 1.8

[[record]]
compound = "CC(C)C[C@@H](NC(=O)[C@H](C)NC(=O)[C@H](NC(=O)[C@H](C)NC(=O)CNC(=O)[C@@H](NC=O)C(C)C)C(C)C)C(=O)N[C@H](C(=O)N[C@@H](C(=O)N[C@@H](Cc1c[nH]c2ccccc12)C(=O)N[C@@H](C(=O)N[C@@H](Cc1c[nH]c2ccccc12)C(=O)N[C@H](CC(C)C)C(=O)N[C@@H](Cc1c[nH]c2ccccc12)C(=O)N[C@H](CC(C)C)C(=O)N[C@@H](Cc1c[nH]c2ccccc12)C(=O)NCCO)C(C)C)C(C)C)C(C)C [B02] (For-VGA[dV]A[dL]V[dV]W[dV]W[dL]W[dL]W-NHCH2CH2OH)"
reported_endpoint = "EC50"
number = 3.4


====

system: P388 mouse leukemia cells; conditions: 92 h
Where a SMILES comes first, the peptide text is derived from it. [ ]: non-standard residue; d: D form. The star is where a group is joined. NHCH2CH2OH = OCCN*; For = O=C*
cell viability/% values, listed per item
Reported endpoint: cell viability/% (%)

[[record]]
compound = "CC(C)C[C@@H](NC(=O)[C@H](C)NC(=O)[C@H](NC(=O)[C@H](C)NC(=O)CNC(=O)[C@@H](NC=O)C(C)C)C(C)C)C(=O)N[C@H](C(=O)N[C@@H](C(=O)N[C@@H](Cc1c[nH]c2ccccc12)C(=O)N[C@H](CC(C)C)C(=O)N[C@@H](Cc1c[nH]c2ccccc12)C(=O)N[C@@H](C(=O)N[C@@H](Cc1c[nH]c2ccccc12)C(=O)N[C@H](CC(C)C)C(=O)N[C@@H](Cc1c[nH]c2ccccc12)C(=O)NCCO)C(C)C)C(C)C)C(C)C [compound 660] (For-VGA[dV]A[dL]V[dV]W[dL]W[dV]W[dL]W-NHCH2CH2OH)"
test_target = "P388 mouse leukemia cells"
number = 15.6

[[record]]
compound = "CNC(=O)C[C@@H](NC(=O)[C@H](C)NC(=O)[C@@H](CC(C)C)NC(=O)[C@H](C)NC(=O)CNC(=O)[C@@H](NC=O)C(C)C)C(=O)N[C@H](C(=O)N[C@@H](C(=O)N[C@@H](Cc1c[nH]c2ccccc12)C(=O)N[C@H](CC(C)C)C(=O)N[C@@H](Cc1c[nH]c2ccccc12)C(=O)N[C@@H](C(=O)N[C@@H](Cc1c[nH]c2ccccc12)C(=O)N[C@H](CC(C)C)C(=O)N[C@@H](Cc1c[nH]c2ccccc12)C(=O)NCCO)C(C)C)C(C)C)C(C)C [compound 8535] (For-VGA[dL]A[dD](NHMe)V[dV]W[dL]W[dV]W[dL]W-NHCH2CH2OH)"
test_target = "P388 mouse leukemia cells"
number = 71.4


====

system: Streptococcus pyogenes SSI-9; assay: Antibacterial activity assay of bead-derived peptides (three concentrations); assay type: cell-based; parameters: key: +++: inhibition by the 640-fold diluted peptide solution; ++: inhibition by the 160-fold diluted solution; +: inhibition by the 40-fold diluted solution; -: no inhibition; conditions: S. pyogenes, bead-derived peptide solution, three concentrations
Where a SMILES comes first, the peptide text is derived from it. [ ]: non-standard residue; d: D form. The star is where a group is joined. NHCH2CH2OH = OCCN*; For = O=C*
Reported endpoint: antibacterial activity

[[record]]
compound = "CNC(=O)C[C@@H](NC(=O)[C@H](C)NC(=O)[C@H](NC(=O)[C@H](C)NC(=O)CNC(=O)[C@@H](NC=O)C(C)C)C(C)C)C(=O)N[C@H](C(=O)N[C@@H](C(=O)N[C@@H](Cc1c[nH]c2ccccc12)C(=O)N[C@@H](C(=O)N[C@@H](Cc1c[nH]c2ccccc12)C(=O)N[C@H](CC(C)C)C(=O)N[C@@H](Cc1c[nH]c2ccccc12)C(=O)N[C@H](CC(C)C)C(=O)N[C@@H](Cc1c[nH]c2ccccc12)C(=O)NCCO)C(C)C)C(C)C)C(C)C [compound 5211] (For-VGA[dV]A[dD](NHMe)V[dV]W[dV]W[dL]W[dL]W-NHCH2CH2OH)"
result = "-"

[[record]]
compound = "CC(C)C[C@@H](NC(=O)[C@H](C)NC(=O)[C@H](NC(=O)[C@H](C)NC(=O)CNC(=O)[C@@H](NC=O)C(C)C)C(C)C)C(=O)N[C@H](C(=O)N[C@@H](C(=O)N[C@@H](Cc1c[nH]c2ccccc12)C(=O)N[C@@H](C(=O)N[C@@H](Cc1c[nH]c2ccccc12)C(=O)N[C@@H](C(=O)N[C@@H](Cc1c[nH]c2ccccc12)C(=O)N[C@H](CC(C)C)C(=O)N[C@@H](Cc1c[nH]c2ccccc12)C(=O)NCCO)C(C)C)C(C)C)C(C)C)C(C)C [compound 9192] (For-VGA[dV]A[dL]V[dV]W[dV]W[dV]W[dL]W-NHCH2CH2OH)"
result = "-"

[[record]]
compound = "CC(C)C[C@@H](NC(=O)[C@H](C)NC(=O)CNC(=O)[C@@H](NC=O)C(C)C)C(=O)N[C@@H](C)C(=O)N[C@@H](C(=O)N[C@H](C(=O)N[C@@H](C(=O)N[C@@H](Cc1c[nH]c2ccccc12)C(=O)N[C@@H](C(=O)N[C@@H](Cc1c[nH]c2ccccc12)C(=O)N[C@@H](C(=O)N[C@@H](Cc1c[nH]c2ccccc12)C(=O)N[C@@H](C(=O)N[C@@H](Cc1c[nH]c2ccccc12)C(=O)NCCO)C(C)C)C(C)C)C(C)C)C(C)C)C(C)C)C(C)C [compound 9610] (For-VGA[dL]A[dV]V[dV]W[dV]W[dV]W[dV]W-NHCH2CH2OH)"
result = "+"

[[record]]
compound = "CC(C)C[C@@H](NC(=O)[C@H](C)NC(=O)CNC(=O)[C@@H](NC=O)C(C)C)C(=O)N[C@@H](C)C(=O)N[C@@H](C(=O)N[C@H](C(=O)N[C@@H](C(=O)N[C@@H](Cc1c[nH]c2ccccc12)C(=O)N[C@@H](C(=O)N[C@@H](Cc1c[nH]c2ccccc12)C(=O)N[C@H](CC(C)C)C(=O)N[C@@H](Cc1c[nH]c2ccccc12)C(=O)N[C@@H](C(=O)N[C@@H](Cc1c[nH]c2ccccc12)C(=O)NCCO)C(C)C)C(C)C)[C@H](C)O)C(C)C)C(C)C [compound 2154] (For-VGA[dL]A[dV]V[dT]W[dV]W[dL]W[dV]W-NHCH2CH2OH)"
result = "-"

